# Measurement target: Muscarinic acetylcholine receptor M2 (Homo sapiens, UniProt P08172)
# Sequence (P08172 whole entry): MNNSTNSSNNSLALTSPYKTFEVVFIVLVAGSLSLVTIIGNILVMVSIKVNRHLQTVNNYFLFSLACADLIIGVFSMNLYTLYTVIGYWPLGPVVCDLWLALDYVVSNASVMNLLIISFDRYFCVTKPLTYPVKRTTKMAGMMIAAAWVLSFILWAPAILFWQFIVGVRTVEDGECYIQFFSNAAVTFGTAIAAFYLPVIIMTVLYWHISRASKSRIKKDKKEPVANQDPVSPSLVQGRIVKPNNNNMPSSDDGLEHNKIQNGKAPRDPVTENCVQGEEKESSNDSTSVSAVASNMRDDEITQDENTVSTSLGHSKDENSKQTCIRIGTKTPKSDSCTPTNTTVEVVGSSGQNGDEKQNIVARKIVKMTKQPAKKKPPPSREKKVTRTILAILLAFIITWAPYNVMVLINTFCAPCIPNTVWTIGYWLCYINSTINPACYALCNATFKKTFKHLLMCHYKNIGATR
pKi: −log10 of the molar value.
Quantity: pKi

Compound structure string: CCN/C(=N\S(=O)(=O)c1cccc(Cl)c1)N1CC2(C=N1)CCNCC2
Result number: 5.00

---

# Test description: Oral bioavailability in Wistar rat at 10 mg/kg
# Format: ADME, organism-based
# Conditions used: in vivo

Compound structure string: CCN/C(=N\S(=O)(=O)c1cccc(Cl)c1)N1CC(C)(C)C=N1
bioavailability (%): 7

---

# Test description: Ratio of drug level in brain to plasma in Wistar rat at 10 mg/kg, po
# Format: ADME, organism-based
# Set-up: dose 10 mg/kg, route oral
# Conditions used: brain and plasma
Quantity: Kp

Compound structure string: CCN/C(=N\S(=O)(=O)c1cccc(Cl)c1)N1CC(C)(C)C=N1
Quantity: Kp
Result number: 1

---

# Test description: in vitro
# Conditions used: Sprague-Dawley, rat, hepatocytes
Mark met for reported hepatocyte CLint at 1 ug/mL of 100 µL/min/1e6 cells or greater; mark not met for anything smaller.

Molecule: CCN/C(=N\S(=O)(=O)c1cccc(Cl)c1)N1N=CCC1c1ccccc1 (racemic)
Class label: met
//
Molecule: CCN=C(NS(=O)(=O)c1cccc(Cl)c1)N1N=CC[C@@H]1c1ccccc1
Class label: met
//
Molecule: CCN/C(=N\S(=O)(=O)c1cccc(Cl)c1)N1N=CCC1c1ccco1 (racemic)
Class label: met
//
Molecule: CCN/C(=N\S(=O)(=O)c1ccc(S(C)(=O)=O)cc1)N1CC(CC)C=N1 (centres undefined)
Class label: not met
//
Molecule: CCN/C(=N\S(=O)(=O)c1cc(Cl)ccc1Cl)N1CC(CC)C=N1 (centres undefined)
Class label: met
//
Molecule: CCN/C(=N\S(=O)(=O)c1cccc(C)c1)N1CC(CC)C=N1 (centres undefined)
Class label: met
//
Molecule: CCN/C(=N\S(=O)(=O)c1ccc2ccccc2c1)N1CC(CC)C=N1 (centres undefined)
Class label: met
//
Molecule: CCN=C(NS(=O)(=O)c1cccc(Cl)c1)N1N=CC[C@H]1c1ccccc1
Class label: met
//
Molecule: CCN/C(=N\S(=O)(=O)c1c(C)nn(C)c1Cl)N1CC(CC)C=N1 (centres undefined)
Class label: not met
//
Molecule: CCN/C(=N\S(=O)(=O)c1ccc(Cl)c(Cl)c1)N1CC(CC)C=N1 (centres undefined)
Class label: met
//
Molecule: CCN/C(=N\S(=O)(=O)c1cccc(Cl)c1)N1CC2(C=N1)CCNCC2
Class label: not met
//
Molecule: CCN/C(=N\S(=O)(=O)c1cccc(Cl)c1F)N1CC(CC)C=N1 (centres undefined)
Class label: met
//
Molecule: CCN=C(NS(=O)(=O)c1cccc(Cl)c1)N1N=CCC1c1ccc(F)cc1 (racemic)
Class label: met
//
Molecule: CCN/C(=N\S(=O)(=O)c1cccc(Cl)c1)N1N=CCC1c1ccncc1 (racemic)
Class label: not met
//
Molecule: CCN/C(=N\S(=O)(=O)c1cccc(OC)c1)N1CC(CC)C=N1 (centres undefined)
Class label: not met
//
Molecule: CCN/C(=N\S(=O)(=O)c1c(Cl)cccc1Cl)N1CC(CC)C=N1 (centres undefined)
Class label: met
//
Molecule: CCN/C(=N\S(=O)(=O)c1c(Cl)nc2sccn12)N1CC(CC)C=N1 (centres undefined)
Class label: met
//
Molecule: CCN/C(=N\S(=O)(=O)c1cccc(C(F)(F)F)c1)N1CC(CC)C=N1 (centres undefined)
Class label: met

---

pKi: −log10 of the molar value.
pKi, 5-hydroxytryptamine receptor 6 (Homo sapiens): measured values

Molecule: CCC1C=NN(/C(=N/S(=O)(=O)c2cccc(Cl)c2)N(C)C)C1 (stereo not given)
Qualifier operator: <
pKi: 6.00
//
Molecule: CCN/C(=N\S(=O)(=O)c1cccc(Cl)c1)N1CCC(C)=N1
Qualifier operator: =
pKi: 6.64
//
Molecule: CCN/C(=N\S(=O)(=O)c1cccc(C(F)(F)F)c1)N1CC(CC)C=N1 (stereo not given)
Qualifier operator: =
pKi: 7.75
//
Molecule: CCC1C=NN(/C(=N/S(=O)(=O)c2cccc(Cl)c2)NC)C1 (stereo not given)
Qualifier operator: =
pKi: 7.75
//
Molecule: CCC1C=NN(/C(=N/S(=O)(=O)c2ccccc2Cl)Nc2ccccc2)C1 (stereo not given)
Qualifier operator: <
pKi: 6.00

// provenance: ChEMBL document CHEMBL1833864
